Target chain: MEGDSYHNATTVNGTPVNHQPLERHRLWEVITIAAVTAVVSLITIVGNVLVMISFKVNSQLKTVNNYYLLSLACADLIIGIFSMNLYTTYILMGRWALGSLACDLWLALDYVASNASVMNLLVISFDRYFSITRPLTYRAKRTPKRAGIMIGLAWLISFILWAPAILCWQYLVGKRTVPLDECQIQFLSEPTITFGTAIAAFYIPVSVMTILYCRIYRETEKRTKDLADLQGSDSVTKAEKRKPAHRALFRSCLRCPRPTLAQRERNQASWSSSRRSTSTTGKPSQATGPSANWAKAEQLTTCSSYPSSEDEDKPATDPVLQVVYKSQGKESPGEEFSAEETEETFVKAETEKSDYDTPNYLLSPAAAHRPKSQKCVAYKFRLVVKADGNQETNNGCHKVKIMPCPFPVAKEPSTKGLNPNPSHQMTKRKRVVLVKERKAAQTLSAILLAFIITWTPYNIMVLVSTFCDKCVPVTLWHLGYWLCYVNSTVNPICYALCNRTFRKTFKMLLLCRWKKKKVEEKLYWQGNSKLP
MEASURED PROPERTY: Ki

Ask | What Ki value was documented for this compound, `N#Cc1cc(F)cc(C#Cc2csc(F)n2)c1` ?
Reply | > 10 µM
